The measurements presented in this section are drawn from paper PMC9075506.

Experiment: Pharmacokinetic study in 6-OHDA-induced PD rats after oral administration
Format: in vivo
Conditions: rat, plasma, 25 mg/kg
measurement type: AUC(0-inf) (ng·h/mL)
Give the value in ng·h/mL but do not write ng·h/mL after it.

Prompt: Need AUC(0-inf), item O=C(/C=C/C=C/c1ccc2c(c1)OCO2)N1CCCCC1 [PPR, piperine]
Completion: 7120

---

# Cmax listing for each entry below
Test: Pharmacokinetic study in 6-OHDA-induced PD rats after oral administration
Type: in vivo
Conditions: rat, plasma, 50 mg/kg
Give the value in ng/mL but do not write ng/mL after it.

Example entries and their recorded answers appear below.
structure smiles | unit of measurement | Cmax
CC(C)CNC(=O)/C=C/C=C/c1ccc2c(c1)OCO2 | ng/mL | 97.3
O=C(/C=C/C=C/c1ccc2c(c1)OCO2)N1CCCCC1 | ng/mL | 978

Prompt: Need Cmax, item O=C(/C=C/CCc1ccc2c(c1)OCO2)N1CCCCC1
Completion: 123
